- Measurement notes: Spinal cord pharmacokinetics after a single 1 mg/kg dose
- Format: in vivo, C57BL/6J mice
- Assay conditions: C57BL/6J, mouse, spinal cord, po, 1 mg/kg
Quantity kind: Tmax
Param answer (str): number followed by unit.

Quick one: Tmax for CC(=O)N[C@@H](Cc1ccccc1)C(=O)N[C@H]1CCCNC(=O)[C@H](CCCNC(=N)N)NC(=O)[C@H](Cc2c[nH]c3ccccc23)NC(=O)[C@@H](CC2CCCCC2)NC(=O)[C@@H]2CCCN2C1=O [PMX53, Ac-Phe-[Orn-Pro-dCha-Trp-Arg]] ?
14.9 min

----------
- Measurement notes: Spinal cord pharmacokinetics after a single 1 mg/kg dose
- Assay type: in vivo, C57BL/6J mice
- Assay conditions: C57BL/6J, mouse, spinal cord, po, 1 mg/kg
Quantity kind: MRT last (min)
Could you give me the number in min? Just the number is fine.

# MRT last lookup, item CC(=O)N[C@@H](Cc1ccccc1)C(=O)N[C@H]1CCCNC(=O)[C@H](CCCNC(=N)N)NC(=O)[C@H](Cc2c[nH]c3ccccc23)NC(=O)[C@@H](CC2CCCCC2)NC(=O)[C@@H]2CCCN2C1=O [PMX53, Ac-Phe-[Orn-Pro-dCha-Trp-Arg]]
40.8

----------
- Measurement notes: Spinal cord pharmacokinetics after a single 1 mg/kg dose
- Assay type: in vivo, C57BL/6J mice
- Assay conditions: C57BL/6J, mouse, spinal cord, ip, 1 mg/kg
Quantity kind: Tmax
I'd appreciate it if you wrote the number followed by its unit.

Using the record for CC(=O)N[C@@H](Cc1ccccc1)C(=O)N[C@H]1CCCNC(=O)[C@H](CCCNC(=N)N)NC(=O)[C@H](Cc2c[nH]c3ccccc23)NC(=O)[C@@H](CC2CCCCC2)NC(=O)[C@@H]2CCCN2C1=O [PMX53, Ac-Phe-[Orn-Pro-dCha-Trp-Arg]] , report its Tmax.
11.9 min

----------
- Measurement notes: Brain pharmacokinetics after a single 1 mg/kg dose
- Format: in vivo, C57BL/6J mice
- Assay conditions: C57BL/6J, mouse, brain, sc, 1 mg/kg
Quantity kind: k el

For the molecule CC(=O)N[C@@H](Cc1ccccc1)C(=O)N[C@H]1CCCNC(=O)[C@H](CCCNC(=N)N)NC(=O)[C@H](Cc2c[nH]c3ccccc23)NC(=O)[C@@H](CC2CCCCC2)NC(=O)[C@@H]2CCCN2C1=O [PMX53, Ac-Phe-[Orn-Pro-dCha-Trp-Arg]] , what k el is on record?
0.000189 s⁻¹

----------
- Measurement notes: Brain pharmacokinetics after a single 1 mg/kg dose
- Assay type: in vivo, C57BL/6J mice
- Assay conditions: C57BL/6J, mouse, brain, iv, 1 mg/kg
Quantity kind: k el (s⁻¹)
Give the quantity in s⁻¹, number only.

Look up k el for this molecule: CC(=O)N[C@@H](Cc1ccccc1)C(=O)N[C@H]1CCCNC(=O)[C@H](CCCNC(=N)N)NC(=O)[C@H](Cc2c[nH]c3ccccc23)NC(=O)[C@@H](CC2CCCCC2)NC(=O)[C@@H]2CCCN2C1=O [PMX53, Ac-Phe-[Orn-Pro-dCha-Trp-Arg]]
0.0001

----------
- Measurement notes: Brain pharmacokinetics after a single 1 mg/kg dose
- Type: in vivo, C57BL/6J mice
- Assay conditions: C57BL/6J, mouse, brain, po, 1 mg/kg
Quantity kind: Tmax (min)
Quick note: give the figure in min, leave out the unit.

What value of Tmax has been recorded for this entry: CC(=O)N[C@@H](Cc1ccccc1)C(=O)N[C@H]1CCCNC(=O)[C@H](CCCNC(=N)N)NC(=O)[C@H](Cc2c[nH]c3ccccc23)NC(=O)[C@@H](CC2CCCCC2)NC(=O)[C@@H]2CCCN2C1=O [PMX53, Ac-Phe-[Orn-Pro-dCha-Trp-Arg]]
14.9
